- SYSTEM UNDER TEST: Cytochrome P450 2C19 (Homo sapiens)
- PROTOCOL SUMMARY: Cytochrome panel assay with activity outcomes
- CONDITION SUMMARY: recombinant CYP, pro-luciferin dealkylation, luminescence, p450-cyp2c19; series mostly up to 57.1 µM
The campaign covered roughly 16,000 compounds. About 5,800 (36%) were called active. Inconclusive results (about 23%) are left out. Calls follow the shape of the dose curve; as a rule, active = well fitted curve in the direction sought with a large enough effect; inconclusive = small, poorly fitted or top-dose-only effect, or effect the other way; inactive = no such curve, though single readings can be large or run the other way. Some of the results follow.
# valid calls are active, inactive; nothing else

Before answering, review these 5 worked examples.
| MOLECULE | QUALITATIVE LABEL |
| --- | --- |
| CCn1cc(C(=O)O)c(=O)c2cc3c(cc21)OCO3 | inactive |
| N/C(=N\OC(=O)c1cc(-c2ccccc2)nc2ccccc12)c1ccc(Cl)cc1 | active |
| CN(C)CC/C=C1\c2ccccc2COc2ccccc21 | inactive |
| Cn1cc(-c2nc3cnc(N4CCNCC4)nc3n(CCc3ccccc3)c2=O)c2ccccc21 | active |
| CCN1CCCC1Cn1cnc2c([nH]c3ccc(C)cc32)c1=O (configuration not stated) | inactive |

For CSc1nncc(-c2ccc(F)c(F)c2)n1 , which call appears in the assay record? active

Now this one: O=C(CCCn1c(=S)[nH]c2cc3c(cc2c1=O)OCO3)N1CCN(c2ncccn2)CC1 active

Now this one: Cn1c(=O)c(-c2ccc(F)c(F)c2)nc2cncnc21 inactive

Now this one: CN1CC[C@@]2(CCCN(C(=O)c3cc(C(F)(F)F)cc(C(F)(F)F)c3)C2)C1 inactive

Now this one: O=C(NC(NC(=S)Nc1cc(Cl)ccc1Cl)C(Cl)(Cl)Cl)c1ccco1 (configuration not stated) active

Now this one: COc1ccc(NC2=NC(=S)N(c3ccc(C)cc3)C23CCCCC3)cc1 inactive

Now this one: O[C@@](CCN1CCCCC1)(c1ccccc1)C1CCCCC1 inactive

Now this one: Cn1cc(-c2nc3cnc(N4CCOCC4)nc3n(CCC#N)c2=O)c2ccccc21 inactive

Now this one: Cc1cccc(N2CCN(C(=O)CCCn3c(=S)[nH]c4cc5c(cc4c3=O)OCO5)CC2)c1C active

* * *

- SYSTEM UNDER TEST: Cytochrome P450 2C19 (Homo sapiens) (UniProt P33261)
- Sequence (P33261 whole entry, looked up): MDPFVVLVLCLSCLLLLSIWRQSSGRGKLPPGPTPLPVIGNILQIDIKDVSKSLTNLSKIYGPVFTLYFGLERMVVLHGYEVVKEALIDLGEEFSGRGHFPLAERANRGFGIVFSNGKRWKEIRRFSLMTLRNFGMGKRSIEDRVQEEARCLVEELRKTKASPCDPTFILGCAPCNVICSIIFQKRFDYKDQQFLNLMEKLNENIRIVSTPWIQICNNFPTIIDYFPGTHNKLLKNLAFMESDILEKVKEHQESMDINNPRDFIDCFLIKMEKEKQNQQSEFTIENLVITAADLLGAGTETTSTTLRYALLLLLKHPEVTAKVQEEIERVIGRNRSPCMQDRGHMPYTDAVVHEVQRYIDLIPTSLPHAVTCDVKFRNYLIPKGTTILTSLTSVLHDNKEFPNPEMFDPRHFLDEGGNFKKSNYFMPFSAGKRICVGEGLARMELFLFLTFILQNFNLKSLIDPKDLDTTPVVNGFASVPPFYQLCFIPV
- PROTOCOL SUMMARY: Cytochrome panel assay with activity outcomes
- CONDITION SUMMARY: recombinant CYP, pro-luciferin dealkylation, luminescence, p450-cyp2c19; series mostly up to 57.1 µM
In all, about 16,000 compounds went through this assay and about 5,800 (36%) were called active. Roughly 23% stayed inconclusive and do not appear here. The list shows a part of the results.
MEASURED PARAMETER: AC50

Some solved entries appear below for comparison.
| COMPOUND | ASSAY RESULT |
| --- | --- |
| Cc1nc2c(OCc3ccccc3)cccn2c1CC#N | inactive |
| NC(=O)c1ccc(NC(=O)C2CCCO2)cc1 (stereo unspecified) | inactive |
| Cc1ccc(-c2cc(C(=O)NN=C3CCCC3)c3ccccc3n2)cc1 | 28.2 µM (active) |
| CN(C)c1ccc(-c2cc(N(C)Cc3ccco3)ncn2)cc1 | 10 µM (active) |
| Cc1ccccc1NC(=S)NC(=O)c1cc(-c2ccccc2)nc2ccccc12 | 2.82 µM (active) |

Value lookup for AC50; key = COc1cc(C(=O)OC(C)C(=O)Nc2ccc3c(c2)OCO3)ccc1OCc1c(C)noc1C (stereo unspecified) 14.1 µM (active)

Now this one: Cc1c(NC(=O)C2CCN(S(=O)(=O)c3ccc(Cl)cc3)CC2)c(=O)n(-c2ccccc2)n1C inactive
